Just for reference, the nanobody polyreactivity screen of Harvey et al. (2022) is where these values come from.

procedure.summary: yeast display, Sf9 membrane polyspecificity reagent, FACS + sequencing; frameworks hold sequencing errors
assay.readout: polyreactivity (PSR sort gate)

Given item QVQLVESGGGLVQAGGSLRLSCAASGITLYAYVMGWYRQAPGKERELVAAIRSGGSTYYADSVKGRFTISRDNAKNTVYLQKNSLKPEDTAVYYCAAYYPLWGWGYDYWGQGTQVTVSS , the value recorded as its polyreactivity (PSR sort gate) is high polyreactivity

Given item QVQLVESGGGLVQSGGSLLLSCAASGFTFGRYAMAWYRQAPGKERELVAAIRRSGGSTYYADSVKGRFTISRDNAKNTVYLQMNSRKPEDTAVFYCAAVRWWTYGNYDYWGQGTQVTVSS , the value recorded as its polyreactivity (PSR sort gate) is high polyreactivity

Given item QVQLVESGGGLVQAGGSLRLSCAASGITFVTYAMGWSRQAPGKERELVADISWRGTSTNYADSVKGRFTISRDNAKNTVYFQMISLKPEDTAVYYCAAKQTYTRLHYLGPSVWDNYDYWGQGTQVTVSS , the value recorded as its polyreactivity (PSR sort gate) is high polyreactivity

Given item QVQLVESGGGLVQAGGTLRLSCAASGSILTPNAMGWSRQAPGKERELVAAISDNAGSTYYADSVKGRFTISRDNAKNTVYLQMNSLKPEDTAVYYCAAEYWEYNLVYLVYYYSMDYWGQGTQVTVSS , the value recorded as its polyreactivity (PSR sort gate) is high polyreactivity

Given item QVQLVESGGGLVQAGGSLRLSCAASGRTFSVYDMGWYRQAPGKERELVARIRSGGSTYYADSVKGRFTISRDNAKNTVYLQMNSLKPEDTAVYYCAADGFASRWYAYYYWGQGTQVTVSS , the value recorded as its polyreactivity (PSR sort gate) is high polyreactivity

Others:
Given item QVQLVESGGGLVQAGGSLRLSCAASGSIFRYYAMGWYRPATGKERELVADITSSGGSTYYADSVKGRFTISRDNPKNTVYLQMNSLKREDTAVYYCASLYWFYVYPFTEYDYWGQGTQVTVSS , the value recorded as its polyreactivity (PSR sort gate) is low polyreactivity

Given item QVQLVESGGGLVQAGGSLRLSCAASGGTFLAYAMGWYRQAPGKERELVAAITRRGTRTYYADSVKGRFTISRDNAKNTVYLQMNSLKPEDTAVYYCAVSGGFYWGQGTQVTVSS , the value recorded as its polyreactivity (PSR sort gate) is high polyreactivity

Given item QVQLVESGGGLVQAGGSLRLSCAASGSTSQRNAMGWYRQAPGKERELVAAISRSGGSTSYADSVKGRFTISRDNAKNTVYLQMNSLKPEDTAVYYCNTDRRIYRVWYNYWGQGTQVTVSS , the value recorded as its polyreactivity (PSR sort gate) is high polyreactivity

Given item QVQLVESGGGLVQAGGSLRLSCAASGSTFGPYTMGWYRQAPGKERELVATISSGGSTYYADSVKGRFTISRDNAKNTVYLQMNSLKPEDTAVYYCAARYWSIYDYWGQGTQVTVSS , the value recorded as its polyreactivity (PSR sort gate) is low polyreactivity

Given item QVQLVESGGGLVQAGGSLRLSCAASGRTFWMNAMGWYRQATGKERELVATISSSSGSTTYADSVKGRFTISRDNAKNTVYLQMNSLKPEDTAVYYCNVDDPFYSGVVEFDYWGQGTQVTVSS , the value recorded as its polyreactivity (PSR sort gate) is low polyreactivity

Given item QVQLVESGGGLVQAGGSLRLSCAASGSTFGLYAMGWYRQAPGKEREFVAAISYSGSSTYYADSVKGRFTISRDNAKNTVYLQMNSLKPSDTAVYYCAARRSEHGYTYWGQGSQVTVSS , the value recorded as its polyreactivity (PSR sort gate) is high polyreactivity
